Every entry's value here was drawn from PubChem BioAssay.

Reported nuclei count by item:
experiment: inhibitors of E-selectin induction by TNFa, primary screen, imaging, HUVEC, immunofluorescence, MLSMR starter and 10KST1 sets (AID 487); conditions: HUVEC TNFalpha-induced E-selectin immunofluorescence imaging, at 2 µM; measured here: cell number, toxicity;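 note: 100% = median nuclei count of all wells on the same plate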
Dear colleague, please return just the value in %, with no unit written.

Examples from the recorded data:
# compound, val
data = [
    ("Cc1[nH]c2ccc(F)cc2c(=O)c1SC(F)(F)C(F)C(F)(F)F (stereo unspecified)", 123),
    ("CCOC(=O)CC1=C(C(=O)OCC)C(c2ccc(OC)c(OC)c2)C(C#N)=C(N)O1 (stereo unspecified)", 163),
    ("CN1CCN(c2nc(C(N)=O)cc(-c3ccccc3)n2)CC1", 98.8),
    ("COc1ccc(/C(O)=C2\\C(=O)C(=O)N(c3cc(C)on3)C2c2ccccc2OC)cc1 (stereo unspecified)", 101),
    ("COC(=O)C1=C(N)Oc2cc(C)[nH]c(=O)c2C1c1ccncc1 (stereo unspecified)", 132),
]

# ---- query compound ----
QUERY: Find the measured nuclei count of CC(=O)Nc1cc2c(cc1Br)OCCO2 and report it.
RESULT: 169
